testDescription: Encapsulation efficiency / loaded nucleic acid by SyBr Gold fluorescence after Triton X-100 disruption
Format: physicochemical
conditions: mRNA(F-Luc) LNPs, total lipid 5 mM, N/P 6
readout: Encapsulation Efficiency (%)
Return type: number; implicit unit %.

query: # lookup: Encapsulation Efficiency of CCCCC/C=C\C/C=C\CCCCCCCCNC(=O)CCC(NC(=O)CCCN(C)C)C(=O)NCCCCCCCC/C=C\C/C=C\CCCCC (stereo not shown)
result: 87.5

query: Likewise for CCCCCCCC/C=C\CCCCCCCC(=O)OCC(C[N+](C)(C)C)OC(=O)CCCCCCC/C=C\CCCCCCCC (stereo not shown) [DOTAP, reference compound] ?
result: 91.5

query: Likewise for CCCCCCCC/C=C\CCCCCCCCNC(=O)CCC(NC(=O)CN(C)C)C(=O)NCCCCCCCC/C=C\CCCCCCCC (stereo not shown) ?
result: 97.5

query: Likewise for CCCCCCCC/C=C\CCCCCCCCNC(=O)CCC(NC(=O)CCC(=O)NCCSSCCNC(=O)CN(C)C)C(=O)NCCCCCCCC/C=C\CCCCCCCC (stereo not shown) ?
result: 94
